Hello, the source for this data is patent US11773078B2, in case you need it.

- measured target: furin (endogenous protease) in U20S cells (Homo sapiens)
- Construct: the endogenous protease cleaves GFP; endogenous in cells; host or cells: U2OS cells transduced with a BacMam reporter
- Sequence (P09958 108-794): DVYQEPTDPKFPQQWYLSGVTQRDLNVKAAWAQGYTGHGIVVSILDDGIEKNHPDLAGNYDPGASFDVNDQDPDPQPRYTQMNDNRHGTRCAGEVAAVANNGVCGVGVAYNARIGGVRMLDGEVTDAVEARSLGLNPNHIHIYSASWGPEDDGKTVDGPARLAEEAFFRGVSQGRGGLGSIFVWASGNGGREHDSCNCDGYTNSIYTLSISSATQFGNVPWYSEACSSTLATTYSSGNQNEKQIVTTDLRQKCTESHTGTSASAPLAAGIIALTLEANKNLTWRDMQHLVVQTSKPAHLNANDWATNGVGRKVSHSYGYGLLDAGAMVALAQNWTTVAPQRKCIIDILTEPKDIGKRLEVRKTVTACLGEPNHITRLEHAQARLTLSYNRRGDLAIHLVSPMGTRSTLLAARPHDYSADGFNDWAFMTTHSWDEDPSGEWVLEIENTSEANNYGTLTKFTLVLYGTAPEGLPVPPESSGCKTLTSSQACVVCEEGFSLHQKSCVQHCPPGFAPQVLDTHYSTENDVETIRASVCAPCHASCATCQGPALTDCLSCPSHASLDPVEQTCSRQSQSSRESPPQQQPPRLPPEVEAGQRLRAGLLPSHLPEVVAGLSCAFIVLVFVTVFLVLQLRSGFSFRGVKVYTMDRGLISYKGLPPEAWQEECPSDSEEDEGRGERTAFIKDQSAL
- assay notes: Furin cell-based assay (image-based, Golgi-targeted GFP with BMP10 furin/PCSK cleavage site);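 also: Read-out is mean GFP fluorescence of Golgi puncta per cell by high-content imaging, retained when furin inhibited, over an eleven-point 0.00017–10 µM series, four-parameter fit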
- condition: 24-hour incubation, read-out: furin golgi cell pXC50 (converted)
Structures can show the parent of a compound that is named as a salt.
readout label: EC50 (nM)

1. O=C(O)CC1CCN(Cc2cc(Oc3cnc(N4CCNCC(O)C4)nc3)nc(-c3cc(Cl)cc(Cl)c3)c2)CC1 (stereo not shown) ... 100
2. CCN1C[C@@H]2C[C@H]1CN2c1ncc(Oc2cc(CN3CCC(CC(=O)O)CC3)cc(-c3cc(Cl)cc(Cl)c3)n2)cn1 ... 50.1
3. CP(C)(=O)CC1CCN(Cc2cc(Oc3cnc(N4CCNCC4)nc3)nc(-c3cc(Cl)cc(Cl)c3)c2)CC1 ... 50.1

1: CC(=O)CC1CCN(Cc2cc(Oc3cnc(N4CCN(C)CC4)nc3)nc(-c3cc(Cl)cc(Cl)c3)c2)CC1
2: COC(=O)NCC1CCN(Cc2cc(Oc3cnc(N4CCN5CCC4C5)nc3)nc(-c3cc(Cl)cc(Cl)c3)c2)CC1 (stereo not shown)
3: O=S(=O)(O)CCC1CCN(Cc2cc(Oc3ccc(N4CCNCC4)nc3)nc(-c3cc(Cl)cc(Cl)c3)c2)CC1 [Example 7, hydrochloride]
4: CC(=O)NCC1CCN(Cc2cc(Oc3ccc(N4CCN(CCC(=O)O)CC4)nc3)cc(-c3cc(Cl)cc(Cl)c3)c2)CC1
stdin: Arrange these compounds by their EC50, starting with the largest number. Output the labels ranked as instructed.
stdout: 3, 4, 1, 2
(3: 79.4 nM, 4: 31.6 nM, 1: 15.8 nM, 2: 3.98 nM)

A: CC(=O)NCC1CCN(Cc2cc(Oc3ccc(N4CCNCC4)nc3)nc(-c3cc(Cl)cc(Cl)c3)n2)CC1 [Example 89, hydrochloride]
B: CC(C)(O)CCN1CCN(c2ncc(Oc3cc(CN4CCC(CC(=O)O)CC4)cc(-c4cc(Cl)cc(Cl)c4)n3)cn2)CC1
C: O=C(O)CCN1CCN(c2ncc(Oc3cc(CN4CCC(CNC(=O)C5CC5)CC4)cc(-c4cc(Cl)cc(Cl)c4)n3)cn2)CC1
stdin: Put these in order: smallest EC50 first, largest last. Reply: labels, ordered per the request.
stdout: C, A, B
(C: 7.94 nM, A: 12.6 nM, B: 20 nM)
